tested system: DNA-PK(h) (Homo sapiens, UniProt P78527)
experiment summary: Evaluation of inhibitory activity against DNA-PK (HTRF kinase assay, GST-cMyc-p53 substrate)
Assay type: biochemical
conditions: compound concentration 0.01 μM; read-out: EXP_VALUE(% Inhibition) DNA-PK(h) 0.01 μM
observed property: inhibition at 0.01 µM (%)

Recorded inhibition at 0.01 µM for `C[C@H](Nc1ncnc2[nH]ccc(=O)c12)c1c(Cl)c2cccc(C#Cc3nccs3)c2c(=O)n1-c1ccccc1` , please?
39.8

Recorded inhibition at 0.01 µM for `C[C@H](Nc1ncnc2[nH]ccc(=O)c12)c1c(Cl)c2cccc(-c3ccc(N4CCOCC4)cc3)c2c(=O)n1-c1ccccc1` , please?
82

Recorded inhibition at 0.01 µM for `C[C@H](Nc1ncnc2[nH]ccc(=O)c12)c1c(Cl)c2cccc(-c3cnc(C(F)(F)F)nc3)c2c(=O)n1-c1ccccc1` , please?
46

Recorded inhibition at 0.01 µM for `Cc1ccc(-c2cccc3c(Br)c([C@H](C)Nc4ncnc5[nH]ccc(=O)c45)n(-c4ccccc4)c(=O)c23)cn1` , please?
70

(P) CON=C(C)c1cccc2c(Cl)c([C@H](C)Nc3ncnc4[nH]ccc(=O)c34)n(-c3ccccc3)c(=O)c12 (stereo in doubt)
(Q) C[C@H](Nc1ncnc2[nH]ccc(=O)c12)c1c(Cl)c2cccc(C(=O)N3CCOCC3)c2c(=O)n1-c1ccccc1
Which one would you say has the larger inhibition at 0.01 µM value: P , or Q ? Mark your selection by writing its label.
P
(P: 60%, Q: 23%)

---

tested system: DNA-PK(h) (Homo sapiens, UniProt P78527)
experiment summary: Evaluation of inhibitory activity against DNA-PK (HTRF kinase assay, GST-cMyc-p53 substrate)
Assay type: biochemical
conditions: compound concentration 0.1 μM; read-out: EXP_VALUE(% Inhibition) DNA-PK(h) 0.1 μM
Method: <Experimental Example 2> Evaluation of Inhibitory Activity Properties Against DNA-PK […] DNA-PK(h) was subjected to an isothermal treatment in an assay buffer comprising […] GST-cMyc-p53 and Mg/ATP (at a concentration as required). […] A plate was read in a time-resolved fluorescence mode and a homogeneous time-resolved fluorescence (HTRF) signal was determined according to HTRF=10000×(Em 665 nm/Em 620 nm).
observed property: inhibition at 0.1 µM (%)

(1) C[C@H](Nc1ncnc2[nH]ccc(=O)c12)c1c(Cl)c2cccc(-c3ccc(S)cc3)c2c(=O)n1-c1ccccc1 [Example 95]
(2) C[C@H](Nc1ncnc2[nH]ccc(=O)c12)c1c(Cl)c2cccc(C#Cc3cncnc3)c2c(=O)n1-c1ccccc1 [Example 316]
Which one would you say has the larger inhibition at 0.1 µM value: 1 , or 2 ? Mark your selection by writing its label.
2

(I) COc1cc(-c2cccc3cc([C@H](C)Nc4ncnc5[nH]ccc(=O)c45)n(-c4ccccc4)c(=O)c23)ccc1Cl [Example 100]
(II) C=Cc1cccc2c(Cl)c([C@H](C)Nc3ncnc4[nH]ccc(=O)c34)n(-c3ccccc3)c(=O)c12 [Example 142]
Which one would you say has the larger inhibition at 0.1 µM value: I , or II ? Mark your selection by writing its label.
II

(P) COc1ccccc1Oc1cccc2c(Cl)c([C@H](C)Nc3ncnc4[nH]ccc(=O)c34)n(-c3ccccc3)c(=O)c12 [Example 366]
(Q) C[C@H](Nc1ncnc2[nH]ccc(=O)c12)c1c(Cl)c2cccc(N3CCC(c4ccccc4)CC3)c2c(=O)n1-c1ccccc1 [Example 336]
Which entry shows the lesser value of inhibition at 0.1 µM here, P or Q ? Mark your selection by writing its label.
Q
(Q: 14%, P: 69%)

(1) C[C@H](Nc1ncnc2[nH]ccc(=O)c12)c1c(Cl)c2cccc(-c3cnc(N(C)C)nc3)c2c(=O)n1-c1ccccc1 [Example 112]
(2) Cc1ccc2c(c1)CN(c1cccc3c(Cl)c([C@H](C)Nc4ncnc5[nH]ccc(=O)c45)n(-c4ccccc4)c(=O)c13)CC2 [Example 329]
Which entry shows the lesser value of inhibition at 0.1 µM here, 1 or 2 ? Mark your selection by writing its label.
2
(2: 23%, 1: 97%)

---

tested system: PI3K-δ (PI3K(p1108/p857) (h)) (Homo sapiens)
experiment summary: Evaluation of inhibitory activity against PI3K-δ (HTRF kinase assay)
Type: biochemical
conditions: compound concentration 0.01 μM; read-out: EXP_VALUE(% Inhibition) PI3K-δ 0.01 μM
Protocol: <Experimental Example 1> Evaluation of Inhibitory Activity Properties Against PI3K-δ […] A detection buffer comprising Eu (europium)-labelled anti-GST monoclonal antibody, GST-tagged GRP1 PH domain and streptavidin-allophycocyanin was added. A plate was read in a time-resolved fluorescence mode and a homogeneous time-resolved fluorescence (HTRF) signal was determined according to HTRF=10000×(Em 665 nm/Em 620 nm).
observed property: inhibition at 0.01 µM (%)

(A) C[C@H](Nc1ncnc2[nH]ccc(=O)c12)c1c(Cl)c2cccc(-c3ccc(C(=O)N(C)C)cc3)c2c(=O)n1-c1ccccc1
(B) Cc1ccc(-c2cccc3cc([C@H](C)Nc4ncnc5[nH]ccc(=O)c45)n(-c4ccccc4)c(=O)c23)cn1
Which one would you say has the larger inhibition at 0.01 µM value: A , or B ? Mark your selection by writing its label.
A
(A: 51%, B: 35%)

(I) COc1cc(OC)cc(-c2cccc3c(Cl)c([C@H](C)Nc4ncnc5[nH]ccc(=O)c45)n(-c4ccccc4)c(=O)c23)c1
(II) C[C@H](Nc1ncnc2[nH]ccc(=O)c12)c1c(Cl)c2cccc(-c3ccc(C#N)cn3)c2c(=O)n1-c1ccccc1
Which one would you say has the larger inhibition at 0.01 µM value: I , or II ? Mark your selection by writing its label.
I

---

tested system: PI3K-δ (PI3K(p1108/p857) (h)) (Homo sapiens, UniProt O00329)
Sequence (O00329 whole entry): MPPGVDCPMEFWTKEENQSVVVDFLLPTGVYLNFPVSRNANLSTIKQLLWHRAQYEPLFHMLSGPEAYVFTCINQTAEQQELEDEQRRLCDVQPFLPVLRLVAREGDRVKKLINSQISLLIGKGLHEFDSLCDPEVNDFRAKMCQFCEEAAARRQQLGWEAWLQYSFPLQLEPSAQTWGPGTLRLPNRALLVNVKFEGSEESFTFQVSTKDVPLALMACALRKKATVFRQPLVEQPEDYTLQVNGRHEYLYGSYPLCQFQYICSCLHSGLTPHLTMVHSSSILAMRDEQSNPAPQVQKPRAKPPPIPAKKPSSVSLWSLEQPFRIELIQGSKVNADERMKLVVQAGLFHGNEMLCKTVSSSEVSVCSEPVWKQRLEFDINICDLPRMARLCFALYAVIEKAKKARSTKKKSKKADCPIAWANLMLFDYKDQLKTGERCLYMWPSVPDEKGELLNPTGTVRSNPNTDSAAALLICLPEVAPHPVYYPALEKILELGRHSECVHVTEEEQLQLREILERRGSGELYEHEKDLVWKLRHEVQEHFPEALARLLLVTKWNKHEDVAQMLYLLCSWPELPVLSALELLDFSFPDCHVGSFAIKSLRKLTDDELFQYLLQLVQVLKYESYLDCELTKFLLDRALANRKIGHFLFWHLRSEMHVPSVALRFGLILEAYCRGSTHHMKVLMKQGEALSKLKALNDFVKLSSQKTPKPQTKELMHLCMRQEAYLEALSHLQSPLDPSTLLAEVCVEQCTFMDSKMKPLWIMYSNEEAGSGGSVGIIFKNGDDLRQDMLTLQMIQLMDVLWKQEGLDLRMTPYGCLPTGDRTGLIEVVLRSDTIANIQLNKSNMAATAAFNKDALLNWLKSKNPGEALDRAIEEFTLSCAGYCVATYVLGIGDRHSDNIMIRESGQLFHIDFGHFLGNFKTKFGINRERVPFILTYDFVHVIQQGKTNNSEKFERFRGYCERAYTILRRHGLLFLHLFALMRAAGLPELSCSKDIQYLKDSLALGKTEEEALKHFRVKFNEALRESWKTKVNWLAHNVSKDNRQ
Sequence (P27986 whole entry partner): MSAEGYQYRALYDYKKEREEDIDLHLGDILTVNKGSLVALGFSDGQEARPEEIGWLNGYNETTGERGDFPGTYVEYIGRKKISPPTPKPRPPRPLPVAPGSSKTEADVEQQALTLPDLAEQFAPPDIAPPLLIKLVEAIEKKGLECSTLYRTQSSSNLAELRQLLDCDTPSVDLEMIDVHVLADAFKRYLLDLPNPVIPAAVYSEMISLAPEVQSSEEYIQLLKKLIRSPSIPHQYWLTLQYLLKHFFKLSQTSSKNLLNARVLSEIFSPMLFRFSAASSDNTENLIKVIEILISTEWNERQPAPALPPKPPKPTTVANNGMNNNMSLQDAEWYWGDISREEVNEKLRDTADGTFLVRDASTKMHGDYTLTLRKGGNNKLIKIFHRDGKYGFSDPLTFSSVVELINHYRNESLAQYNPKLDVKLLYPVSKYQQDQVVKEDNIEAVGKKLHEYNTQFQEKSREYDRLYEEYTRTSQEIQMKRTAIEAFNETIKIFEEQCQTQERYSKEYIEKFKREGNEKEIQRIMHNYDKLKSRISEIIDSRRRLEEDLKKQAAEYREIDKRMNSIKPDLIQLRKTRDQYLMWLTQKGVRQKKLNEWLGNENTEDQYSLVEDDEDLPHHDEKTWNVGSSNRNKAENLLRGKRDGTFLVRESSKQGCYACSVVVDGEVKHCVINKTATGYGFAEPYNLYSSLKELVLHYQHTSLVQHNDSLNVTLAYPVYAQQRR
experiment summary: Evaluation of inhibitory activity against PI3K-δ (HTRF kinase assay)
Type: biochemical
conditions: compound concentration 0.01 μM; read-out: EXP_VALUE(% Inhibition) PI3K-δ 0.01 μM
observed property: inhibition at 0.01 µM (%)

Answered examples (2):
Recorded inhibition at 0.01 µM for C[C@H](Nc1ncnc2[nH]ccc(=O)c12)c1c(Cl)c2cccc(C#Cc3ccnn3C)c2c(=O)n1-c1ccccc1 [Example 311] , please?
18.2

Recorded inhibition at 0.01 µM for C[C@H](Nc1ncnc2[nH]ccc(=O)c12)c1c(Cl)c2cccc(-c3ccc(N4CCOCC4)cc3)c2c(=O)n1-c1ccccc1 [Example 75] , please?
79

(I) CCCCC(=O)Nc1cccc2c(Cl)c([C@H](C)Nc3ncnc4[nH]ccc(=O)c34)n(-c3ccccc3)c(=O)c12 [Example 297]
(II) C[C@H](Nc1ncnc2[nH]ccc(=O)c12)c1c(Cl)c2cccc(-c3ccc(C4CCOCC4)cc3)c2c(=O)n1-c1ccccc1 [Example 176]
Which one would you say has the larger inhibition at 0.01 µM value: I , or II ? Mark your selection by writing its label.
II
(II: 19%, I: 9%)

(a) C[C@H](Nc1ncnc2[nH]ccc(=O)c12)c1c(Cl)c2cccc(C#Cc3ccccc3)c2c(=O)n1-c1ccccc1 [Example 305]
(b) C[C@H](Nc1ncnc2[nH]ccc(=O)c12)c1c(Cl)c2cccc(OCC(F)(F)F)c2c(=O)n1-c1ccccc1 [Example 364]
Which entry shows the lesser value of inhibition at 0.01 µM here, a or b ? Mark your selection by writing its label.
b

(a) C[C@H](Nc1ncnc2[nH]ccc(=O)c12)c1c(Cl)c2cccc(C(=O)NC3CCC3)c2c(=O)n1-c1ccccc1 [Example 277]
(b) Cc1ccc(-c2cccc3c(Cl)c([C@H](C)Nc4ncnc5[nH]ccc(=O)c45)n(-c4ccccc4)c(=O)c23)cn1 [Example 257]
Which one would you say has the larger inhibition at 0.01 µM value: a , or b ? Mark your selection by writing its label.
a
(a: 99%, b: 68%)

---

tested system: DNA-PK(h) (Homo sapiens)
experiment summary: Evaluation of inhibitory activity against DNA-PK (HTRF kinase assay, GST-cMyc-p53 substrate)
Assay type: biochemical
conditions: compound concentration 0.01 μM; read-out: EXP_VALUE(% Inhibition) DNA-PK(h) 0.01 μM
observed property: inhibition at 0.01 µM (%)

(I) C[C@H](Nc1ncnc2[nH]ccc(=O)c12)c1c(Cl)c2cccc(NS(=O)(=O)C3CC3)c2c(=O)n1-c1ccccc1
(II) C[C@H](Nc1ncnc2[nH]ccc(=O)c12)c1cc2cccc(-c3ccc(F)cc3)c2c(=O)n1-c1ccccc1
Which one would you say has the larger inhibition at 0.01 µM value: I , or II ? Mark your selection by writing its label.
I

(A) C[C@H](Nc1ncnc2[nH]ccc(=O)c12)c1c(Cl)c2cccc(-c3ccc4c(c3)OCO4)c2c(=O)n1-c1ccccc1
(B) C[C@H](Nc1ncnc2[nH]ccc(=O)c12)c1c(Cl)c2cccc(C#Cc3ccccc3)c2c(=O)n1-c1ccccc1
Which one would you say has the larger inhibition at 0.01 µM value: A , or B ? Mark your selection by writing its label.
A
